system: T1, UNK ZnF1-6 (called full-length) (human, UniProt Q9C0B0 30-357)
T1 sequence: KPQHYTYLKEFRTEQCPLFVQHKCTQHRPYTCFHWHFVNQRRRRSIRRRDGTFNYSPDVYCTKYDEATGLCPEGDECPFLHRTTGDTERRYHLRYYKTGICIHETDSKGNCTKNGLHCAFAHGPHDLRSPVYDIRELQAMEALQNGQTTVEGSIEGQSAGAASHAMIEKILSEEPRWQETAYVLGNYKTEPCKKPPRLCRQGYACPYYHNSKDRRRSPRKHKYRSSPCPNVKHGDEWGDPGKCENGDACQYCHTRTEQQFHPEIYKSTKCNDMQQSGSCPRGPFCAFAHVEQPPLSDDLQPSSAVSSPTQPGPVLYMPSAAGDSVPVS
assay comment: nsRBNS (natural sequence RNA bind-n-seq); RBNS binding buffer (assumed for nsRBNS): 25 mM Tris pH 7.5, 150 mM KCl, 3 mM MgCl2, 0.01% Triton X-100, 500 ug/ml BSA, 20 U/ml SUPERase-In, 4 C; UNK is unkempt and MSI1 is Musashi-1; names of the RNAs are library labels; protein concentration not given here; high values mean tight binding
Whole data set: some 5,800 sequences, median “enrichment r” near 0.68, cut for the highest 2% near 11. The entries come from a sample that favours the highest values as a whole.

binder	binding signal, enrichment R
chr17:27756765:27757353:-|three_prime_utr|ENSG00000007171|control|control|control (ssRNA) RNA: GGGAGUUCUACAGUCCGACGAUCCAAGUCUUAUUUCCUCAACGUUGCUCCCCAUCAAGCCCUUUACUUGACCUCCUAACAAGUAGCACCCUGGAUUGAUCGGAGCCUCCUCUCUCAAACUGGGGCCUCCCUGGUCCCUUGGAGCAACAGAGGAUUGAGCAUCA	0.605
chr17:49053040:49053141:+|3pUTR|ENSG00000159217|unk|FALSE|unique (ssRNA) RNA: GGGAGUUCUACAGUCCGACGAUCCUCAGCUCCUGUGAGGGGUCUGGUUAGGAGAGAGCCAUUUUUAAGGACAGGGAGUUUUAUAGCCCUUUUCUACUUUCCUCCCCUCCUCCCAGUCCUUAUCAAUCUUUUUUCCUUUUUCCUCAACAGAGGAUUGAGCAUCA	3.9
chr1:160214333:160214525:+|3pUTR|ENSG00000162734|msi1|FALSE|unique (ssRNA) RNA: GGGAGUUCUACAGUCCGACGAUCCUACAGUGUUUUCCUUUGCACCGAUCCCCACCCCAAUUCAAUCCCGGAAGGGACUUACUUAGGAAACCCUUCUUUACUAGAUAUCCUGGCCCCCUGGGCUUGUGAACACCUCCUAGCCACCAACAGAGGAUUGAGCAUCA	2.33
chr17:50110931:50111032:+|3pUTR|ENSG00000005882|unk|FALSE|unique (ssRNA) RNA: GGGAGUUCUACAGUCCGACGAUCUGUGCCCAGACAUGUGUGCUCAGGGUGGCUUUCUCCCUAGGACCUUCUGUGUAUAUAGUUAGUUUUAUAACCCUGAAUGCCCCCACCCUUCCCCUAAGCACACAGGGGUUAAAGCUGUGUCAACAGAGGAUUGAGCAUCA	6.79
chr4:138171397:138171528:-|3pUTR|ENSG00000151012|msi1|total|mutant (ssRNA) RNA: GGGAGUUCUACAGUCCGACGAUCAUUAUGGCAAAGAGGAGAGAAAGAAAUUUAUUUUACAUUGACAUUGCAUUGCUUCCCCUCCGAUACCAAUUCCGAUAACAAACACUCAUGCUUUAAUGGAUUAUACCCAGAGCACUUUGACAACAGAGGAUUGAGCAUCA	0.489
chr12:53210768:53210868:-|3pUTR|ENSG00000172819|msi1_unk|FALSE|overlapping (ssRNA) RNA: GGGAGUUCUACAGUCCGACGAUCAGGGGGGAUGCUGCUUAGCUGAUCCCGCCCUGACCCAGAGGAAGCCUCUAUUUAUUUAUUAGCUUUUGUUUACACCGUGGAAUUGACCCCUUCCUCCAGGGGUCUUGGGUGGGGGAGCCCCAACAGAGGAUUGAGCAUCA	2.83
chr19:3536616:3536717:+|3pUTR|ENSG00000105325|msi1|total|mutant (ssRNA) RNA: GGGAGUUCUACAGUCCGACGAUCACCGCCGCAGGGCCAGGCGGACGGCGUGAGGUUUGUGUUGGGGCUGGUUCUGCCCAUGCCCGGGGGUGGGGGAGCUCCCAGGACAGACCAGCCUUGUUUCUCAUGUAAUGCAGUGACGCUCAACAGAGGAUUGAGCAUCA	0.79
